System: panel of 55 breast cancer cell lines
ASSAY REMARKS: Cell growth inhibition assay (Cell Titer Glo, 72 h, 9 doses; GI50, TGI, LC50)
Assay type: cell-based, human
CONDITION INFO: Homo sapiens, HCC1954, HCC1954 cell line; censored GI50 values; read-out: GI50 (converted)
MEASUREMENT LABEL: log10 GI50 (log10 of the value in nM)

# COMPOUND, MEASUREMENT LABEL, RESULT NUMBER
measured = [
    ("Nc1nc2[nH]cc(CCc3ccc(C(=O)N[C@@H](CCC(=O)O)C(=O)O)cc3)c2c(=O)[nH]1 [Pemetrexed]", "log10 GI50", 2.33),
    ("CC/C(=C(\\c1ccccc1)c1ccc(OCCN(C)C)cc1)c1ccccc1 [Tamoxifen]", "log10 GI50", 4.99),
    ("Cc1[nH]c2ccccc2c1CCNCc1ccc(/C=C/C(=O)NO)cc1 [LBH589]", "log10 GI50", 2.57),
    ("CO[C@H]1C[C@@H]2CC[C@@H](C)[C@@](O)(O2)C(=O)C(=O)N2CCCC[C@H]2C(=O)O[C@H]([C@H](C)C[C@@H]2CC[C@@H](O)[C@H](OC)C2)CC(=O)[C@H](C)/C=C(\\C)[C@@H](O)[C@@H](OC)C(=O)[C@H](C)C[C@H](C)/C=C/C=C/C=C/1C [Rapamycin]", "log10 GI50", 0.55),
    ("C/C(=C\\c1csc(C)n1)[C@@H]1C[C@@H]2O[C@]2(C)CCC[C@H](C)[C@H](O)[C@@H](C)C(=O)C(C)(C)[C@@H](O)CC(=O)N1 [Ixabepilone]", "log10 GI50", 0.29),
    ("CNC(=O)c1cc(Oc2ccc(NC(=O)Nc3ccc(Cl)c(C(F)(F)F)c3)cc2)ccn1 [Sorafenib]", "log10 GI50", 4.74),
]
